Origin of the recorded values: patent US20190106460A1

biological target: UniProt:Q9Y297; experiment: Fluorescence polarisation (FP) binding assay with fluorescein-tagged IκB peptide; conditions: Tables 1, 3, 7, 8; 10 nM fluorescein-tagged IκB peptide; read-out: FP Assay IC50/μM
Sequence (Q9Y297 whole entry): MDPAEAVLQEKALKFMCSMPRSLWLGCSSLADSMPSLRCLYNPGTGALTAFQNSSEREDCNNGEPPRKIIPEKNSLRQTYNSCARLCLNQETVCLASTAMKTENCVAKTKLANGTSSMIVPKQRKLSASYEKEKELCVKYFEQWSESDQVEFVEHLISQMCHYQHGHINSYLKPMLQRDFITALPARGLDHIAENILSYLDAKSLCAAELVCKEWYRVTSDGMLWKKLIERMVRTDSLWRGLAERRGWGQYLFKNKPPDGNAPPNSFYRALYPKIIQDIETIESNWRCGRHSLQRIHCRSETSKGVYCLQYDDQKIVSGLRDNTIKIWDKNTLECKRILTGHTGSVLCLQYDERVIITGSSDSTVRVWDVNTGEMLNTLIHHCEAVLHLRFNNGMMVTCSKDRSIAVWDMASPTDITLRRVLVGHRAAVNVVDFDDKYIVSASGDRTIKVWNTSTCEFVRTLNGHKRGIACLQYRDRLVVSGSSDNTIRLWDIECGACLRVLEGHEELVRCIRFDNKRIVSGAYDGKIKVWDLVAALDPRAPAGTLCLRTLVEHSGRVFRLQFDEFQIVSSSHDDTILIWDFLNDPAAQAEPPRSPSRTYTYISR
Sequence (P63208 whole entry partner): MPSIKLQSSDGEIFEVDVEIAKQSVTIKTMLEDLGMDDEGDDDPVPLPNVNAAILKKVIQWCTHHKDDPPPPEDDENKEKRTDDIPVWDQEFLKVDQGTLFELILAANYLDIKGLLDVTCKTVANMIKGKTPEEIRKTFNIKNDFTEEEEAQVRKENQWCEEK
Starred links: 1 amine or outer side, 2 acyl side, 3 side chain; linkers in the order of their positions; H or OH if unused. Non-standard residues stand in square brackets, D forms with d. Residues, ends and D or L forms follow the SMILES beside them. *: point of attachment. Phe(4-NO2) = N[C@@H](Cc1ccc([N+](=O)[O-])cc1)C(=O)O; Phe(3-F) = N[C@@H](Cc1cccc(F)c1)C(=O)O; Phe(4-F) = N[C@@H](Cc1ccc(F)cc1)C(=O)O; Suc = O=C(CCC(=O)[*:2])[*:1]; Tos = Cc1ccc(S(=O)(=O)*)cc1
Listing of recorded log10(IC50) by entry.
A difference of one corresponds to tenfold IC50; all values are log10 with IC50 in µM.

In the examples that follow, each entry is paired with its recorded log10(IC50).
compound | numeric_value
C[C@H](NC(=O)[C@H](CCC(=O)O)NC(=O)CCC(=O)O)C(=O)N[C@@H](Cc1ccc(O)cc1)C(=O)N[C@@H](Cc1ccccc1)C(=O)N[C@@H](CCC(=O)O)C(N)=O [Suc-EAYFE-NH2] | 1.91
Cc1ccc(S(=O)(=O)N[C@H](CC(=O)O)C(=O)N[C@@H](CC(=O)O)C(=O)NCC(=O)N[C@@H](Cc2cccc(F)c2)C(=O)N[C@@H](Cc2c[nH]c3ccccc23)C(=O)N[C@@H](CC(=O)O)C(N)=O)cc1 [UBP028, Ts-dDGF(3F)WD-NH2] (Tos-[dD]DG[Phe(3-F)]WD-NH2) | -1.09
NC(=O)[C@H](Cc1ccc(F)cc1)NC(=O)[C@H](Cc1ccc(O)cc1)NC(=O)CNC(=O)[C@H](CCC(=O)O)NC(=O)CCC(=O)O [Suc-EGY-F(4F)-NH2] (Suc-EGY[Phe(4-F)]-NH2) | 1.85
NC(=O)[C@H](CCC(=O)O)NC(=O)[C@H](Cc1c[nH]c2ccccc12)NC(=O)[C@H](Cc1cccc(F)c1)NC(=O)CNC(=O)[C@H](CCC(=O)O)NC(=O)CCC(=O)O [UBP014, Suc-EGF(3F)WE-NH2] (Suc-EG[Phe(3-F)]WE-NH2) | -1.02
COC(=O)CC[C@H](NC(=O)[C@H](Cc1ccc(OC)cc1)NC(=O)[C@H](Cc1ccccc1)NC(=O)CNC(=O)[C@H](CCC(=O)O)NC(=O)CCC(=O)O)C(N)=O [Suc-EGF-Y(Me)-E(OMe)-NH2] (Suc-EGFY(Me)E(OMe)-NH2) | 1.85

Lookup: Name the recorded log10(IC50) of the compound listed here: NC(=O)[C@H](Cc1ccc([N+](=O)[O-])cc1)NC(=O)[C@H](Cc1ccc(O)cc1)NC(=O)CNC(=O)[C@H](CCC(=O)O)NC(=O)CCC(=O)O [Suc-EGY-F(4NO2)-NH2] (Suc-EGY[Phe(4-NO2)]-NH2)
Found: 1.96
